The origin of these recorded values is the Immune Epitope Database (IEDB).

target desc: HLA-A*02:02
measurement notes: IEDB peptide-MHC binding, purified MHC/competitive/radioactivity; bounds were set here for any values at or beyond the usual limits of such assays
condition label: source organism: Vaccinia virus WR
Values of IC50 strictly less than 100 nM map to rule met, and values of at least 100 nM map to rule not met.

QUERY: Regarding ELKHGLLDSI , kindly confirm whether its IC50 is beneath 100 nM.
RESULT: rule not met

QUERY: I'd appreciate it if you could check whether LVMDKNHAI has IC50 smaller than 100 nM.
RESULT: rule met

QUERY: hey, is IC50 for VQFSILNNPV lower than 100 nM or not?
RESULT: rule not met

QUERY: State whether 100 nM exceeds IC50 recorded for AVTLNRIKIA .
RESULT: rule not met

QUERY: Given the entry SAVFKDSFL , would its reported IC50 be below 100 nM?
RESULT: rule not met

QUERY: Answer whether the sequence WLGAAITLVV has IC50 strictly less than 100 nM
RESULT: rule met

QUERY: Regarding IVSHLRASTT , kindly confirm whether its IC50 is beneath 100 nM.
RESULT: rule not met

QUERY: Field: below-cutoff. Rule: recorded IC50 strictly less than 100 nM. Subject: TIAVSVYGA
RESULT: rule met

QUERY: Dear colleague, could you confirm whether IC50 of YMVTDKTAYI falls below 100 nM? Thanks.
RESULT: rule met

QUERY: Lab log: compare recorded IC50 with 100 nM; is it strictly lower for NVSRVVECLT ?
RESULT: rule not met

QUERY: Bench note: check whether LVKESMASL shows IC50 below 100 nM
RESULT: rule not met

QUERY: Dear reviewer, please state whether IMRNFLRSI has IC50 strictly beneath 100 nM.
RESULT: rule not met

QUERY: In the record for STFNMWREIL , is IC50 less than 100 nM?
RESULT: rule not met

QUERY: Item FLTGTFVTA : IC50 beneath 100 nM, strictly?
RESULT: rule met

QUERY: Problem: For the sequence NLILNFLDWI , is IC50 under 100 nM?
RESULT: rule not met

QUERY: Lab log: compare recorded IC50 with 100 nM; is it strictly lower for TIDKSSPLYI ?
RESULT: rule not met

QUERY: Is the reported IC50 for LMIGNYFSGV strictly below 100 nM?
RESULT: rule met

QUERY: In the record for QILDNAAKYV , is IC50 less than 100 nM?
RESULT: rule not met

QUERY: Consider QQFANVISKI . Does its IC50 lie strictly below 100 nM?
RESULT: rule met

QUERY: Field: below-cutoff. Rule: recorded IC50 strictly less than 100 nM. Subject: NVISKIYTLI
RESULT: rule met

* * *

target desc: HLA-A*02:06
measurement notes: IEDB peptide-MHC binding, cellular MHC/competitive/fluorescence; bounds were set here for any values at or beyond the usual limits of such assays
condition label: source organism: SARS-CoV1
metric name: pIC50
# log scale: pIC50 equals minus log10 of the concentration in mol/L

QUERY: Look up pIC50: IMLIIFWFSL
RESULT: 4.77

QUERY: Suppose we examine the sequence LLFLVLIMLI ; what pIC50 value has been reported?
RESULT: 5.08

* * *

target desc: HLA-A*02:03
measurement notes: IEDB peptide-MHC binding, purified MHC/competitive/radioactivity; bounds were set here for any values at or beyond the usual limits of such assays
condition label: source organism: Influenza A virus
Kindly state pIC50 for each of the entries shown.
Hey, just a heads up that pIC50 is the negative log base 10 of the concentration in molar.

QUERY: Value lookup for pIC50; key = SCLENFRAYV
RESULT: 7.26

QUERY: Find the recorded pIC50 belonging to AAGAAVKGV and report it.
RESULT: 5.64

QUERY: Quick one: pIC50 for TLNRNQPAA ?
RESULT: 6.23

QUERY: Report pIC50 for AIRGQYSGFV please.
RESULT: 7.04

QUERY: Please look up its pIC50: WSYNAELLVA
RESULT: 7.85

QUERY: I have this sequence here, GADINLMPI , and I need its recorded pIC50.
RESULT: 5.48

* * *

Please provide measured pIC50 for the entries that follow.
target desc: HLA-A*02:06
measurement notes: IEDB peptide-MHC binding, cellular MHC/competitive/fluorescence; bounds were set here for any values at or beyond the usual limits of such assays
condition label: source organism: Vaccinia virus WR
Here pIC50 is given on a logarithmic scale as minus log10 of the concentration in mol/L.

QUERY: So what does the record say about pIC50 for IIYSKAGNI ?
RESULT: 4.86

QUERY: Fill in: pIC50 of LMELPVKTDI is ___
RESULT: 4.89

QUERY: Quick check: pIC50 of YVSSSYKDI ?
RESULT: 4.78

QUERY: Dear colleague, I am looking for the recorded pIC50 of the following sequence: RVNHAKYMVT
RESULT: 5.03

QUERY: # query: pIC50 of entry AAAKTPVIV
RESULT: 4.17

QUERY: Given HQRRLVKLL , state its recorded pIC50.
RESULT: 4.67

QUERY: Fill blank: measured pIC50 of the sequence IILFQNNDI is ____.
RESULT: 4.92

QUERY: I'd like to know its pIC50. The sequence in question is YIKDLKHAT
RESULT: 4.40

QUERY: Can you share its pIC50? I mean this sequence: LMSDNPKAST
RESULT: 4.32

* * *

target desc: HLA-A*02:06
measurement notes: IEDB peptide-MHC binding, purified MHC/competitive/radioactivity; bounds were set here for any values at or beyond the usual limits of such assays
condition label: source organism: Vaccinia virus WR
Exercise: for every item that follows, state its recorded log10(IC50).
Use the decimal logarithm of IC50 (nM).

QUERY: Please provide the recorded log10(IC50) for FTILEYLYI , tested on HLA-A*02:06.
RESULT: 2.43

QUERY: # get_value(readout= log10(IC50), system= HLA-A*02:06) for IISLFYTFAI
RESULT: 2.16

QUERY: # get_value(readout= log10(IC50), system= HLA-A*02:06) for ATLNTLITLI
RESULT: 2.30

QUERY: Fill in the recorded log10(IC50) for this sequence, with HLA-A*02:06 as test system: SVDVDIYDAV
RESULT: 0.52

QUERY: Form field - read-out: log10(IC50); system: HLA-A*02:06; submitted item: RLPSETFPNV
RESULT: -0.24

QUERY: Kindly state the measured log10(IC50) obtained for FVYVSVMNFI with HLA-A*02:06.
RESULT: 0.88

QUERY: // lookup log10(IC50) | system=HLA-A*02:06 | key= FTHTTAFFNT
RESULT: 1.71

QUERY: Lab note: need log10(IC50) for FLDWIKDIMT on HLA-A*02:06, anyone have it?
RESULT: 2.15

QUERY: Notebook entry, HLA-A*02:06 assay: log10(IC50) of VQYRILPMII = ?
RESULT: 2.60

QUERY: Form entry - test system: HLA-A*02:06; read-out: log10(IC50); sequence: AVKFAEESYT
RESULT: 3.35

QUERY: Which log10(IC50) is reported with HLA-A*02:06 for this entry: IVAAVIIMAI ?
RESULT: 3.65

QUERY: Quick check: log10(IC50) on HLA-A*02:06, item ETMYLTMKAI ?
RESULT: 3.55

QUERY: Which measured log10(IC50) belongs to SQFSYKELYV , tested on HLA-A*02:06?
RESULT: 1.85

QUERY: Which measured log10(IC50) belongs to CTMERTNDLT , tested on HLA-A*02:06?
RESULT: 3.00

QUERY: # query: log10(IC50) | item FANVISKIYT | system: HLA-A*02:06
RESULT: 3.22

QUERY: Form field: log10(IC50) recorded for DTCLLAISAV with HLA-A*02:06 (enter value)
RESULT: 2.03

QUERY: Which log10(IC50) is reported with HLA-A*02:06 for this entry: SMSQELAELL ?
RESULT: 2.68

QUERY: Give HLA-A*02:06 log10(IC50) for SLVKESMASL
RESULT: 3.16

QUERY: GET /values?readout=log10(IC50)&system=HLA-A*02:06&item= IASGQRCHFI
RESULT: 2.41

QUERY: Form field: log10(IC50) recorded for SIDHCSSFI with HLA-A*02:06 (enter value)
RESULT: 2.30

QUERY: Please state recorded log10(IC50) (tested on HLA-A*02:06) of LAELLEMKYA
RESULT: 3.39
